tested on: HEK-293T; experiment: Multiplex assay against HEK293T; assay type: toxicity, cell-based; conditions: human, 48 h, 10 µM, compound concentration 10 uM, replicate 2
Population Pyknosed Nuclei (%) listing for selected compounds.

| COMPOUND | Population Pyknosed Nuclei (%) |
| --- | --- |
| Cc1cccc(CN2CCN(C(c3ccccc3)c3ccc(Cl)cc3)CC2)c1.Cl.Cl (centres undefined) | 24 |
| CNC(=O)Nc1ccc(-c2nc(N3CC4CCC(C3)O4)c3cnn(C4CCC5(CC4)OCCO5)c3n2)cc1 | 51 |
| Cc1ccccc1C(c1ccccc1C)N1C2CCC1CC(O)(c1ccccc1)C2 (centres undefined) | 24 |
| CCCSc1nc(N[C@@H]2C[C@H]2c2ccc(F)c(F)c2)c2nnn([C@@H]3C[C@H](OCCO)[C@@H](O)[C@H]3O)c2n1 | 63 |
| Cl.O=C(O)c1cc(-c2ccc(C3CCNCC3)cc2)c2ccc(-c3ccc(C(F)(F)F)cc3)cc2c1 | 62 |
| COc1cc(Nc2nccc(-c3cnn4nc(OC)ccc34)n2)cc(C(F)(F)F)c1 | 28 |
| CC(C)(C)NC[C@H](O)COc1nsnc1N1CCOCC1 | 7 |
| CCc1ccc(OCc2ccccc2C(=O)Nc2ccc3nc(C)cc(N)c3c2)cc1.Cl | 17 |
| Cc1ccc(C)c(Oc2ccncc2C(=O)N2CCN(C3CC3)c3ccccc32)c1 | 45 |

###

tested on: U2OS; assay: Multiplex assay against U2OS; format: toxicity, cell-based; conditions: human, 24 h, 1 µM, compound concentration 1 uM, replicate 2
Population Mitochondria Different-Phenotype (%) listing for selected molecules.
QUANTITY: Population Mitochondria Different-Phenotype (%)

| SMI | ENDPOINT RESULT |
| --- | --- |
| COc1cc(Nc2nccc(-c3cnn4nc(OC)ccc34)n2)cc(C(F)(F)F)c1 | 10% |
| CC(C)NC(=O)N1CC[C@H](NC2=Nc3cc(F)ccc3N(CC(F)F)c3ccc(Cl)cc32)C1 | 19% |
| Cl.O=C(O)c1cc(-c2ccc(C3CCNCC3)cc2)c2ccc(-c3ccc(C(F)(F)F)cc3)cc2c1 | 9% |
| CC(C)OC(=O)N1CCC(Oc2ncnc3c2cnn3-c2ccc(S(C)(=O)=O)cc2F)CC1 | 4% |
| CC(C)Oc1ccccc1C(=O)Nc1ccccc1C(=O)Nc1cccc(S(=O)(=O)C(F)(F)F)c1 | 58% |
| C[C@]12CC[C@@H]3c4ccc(O)cc4CC[C@H]3[C@@H]1CC[C@@H]2O | 9% |
| CCCSc1nc(N[C@@H]2C[C@H]2c2ccc(F)c(F)c2)c2nnn([C@@H]3C[C@H](OCCO)[C@@H](O)[C@H]3O)c2n1 | 20% |
| C=CC(=O)Nc1ccc2[nH]c(=O)n(C3CCN(Cc4ccc(-c5nc6cc[nH]c(=O)c6cc5-c5ccccc5)cc4)CC3)c2c1 | 29% |

###

test system: HEK-293T; experiment: Multiplex assay against HEK293T; format: toxicity, cell-based; details: human, 12 h, 1 µM, compound concentration 1 uM, replicate 2
Population Membrane Permeable-Phenotype (%) listing for selected compounds.
QUANTITY: Population Membrane Permeable-Phenotype (%)

| COMPOUND | ENDPOINT RESULT |
| --- | --- |
| CNC(=O)Nc1ccc(-c2nc(N3CC4CCC(C3)O4)c3cnn(C4CCC5(CC4)OCCO5)c3n2)cc1 | 8 |
| COc1ccccc1CN[C@H]1C2CCN(CC2)[C@H]1C(c1ccccc1)c1ccccc1 | 10 |
| CC(C)NC(=O)N1CC[C@H](NC2=Nc3cc(F)ccc3N(CC(F)F)c3ccc(Cl)cc32)C1 | 13 |
| Cc1cccc(CN2CCN(C(c3ccccc3)c3ccc(Cl)cc3)CC2)c1.Cl.Cl (stereo not given) | 10 |
| Cc1nc(N2CC[C@H](O)C2)ncc1-c1cc(C(F)(F)F)cc2[nH]ncc12 | 1 |

###

test system: HEK-293T; test: Incucyte cell viability with HEK293T; format: toxicity, cell-based; conditions: human, 18 h, 10 µM, compound concentration 10 uM, replicate number 1, timepoint 18 hours; further: filed as whole numbers so only -1 and 0 and 1 occur
Growth Rate listing for selected compounds.
QUANTITY: Growth Rate

| COMPOUND | ENDPOINT RESULT |
| --- | --- |
| CN(C)C(=O)/C(C#N)=C/c1ccc(-c2nc3cnc4c(ccn4C)c3n2C2CCCCC2)o1 | 0 |
| O=C(O)C1CN(Cc2ccc(-c3nc4cc(Cc5ccccc5F)ccc4s3)c(F)c2)C1 | 0 |
| S=C=Nc1cccc(NC(=S)NCCCCNC(=S)Nc2cccc(N=C=S)c2)c1 | 0 |
| Cl.Clc1cccc(COc2cncc(N3CCNCC3)n2)c1 | 0 |
| Cc1cc([C@@H](C)Nc2ccccc2C(=O)O)c2nc(N3CCOCC3)cc(=O)n2c1 | 0 |
| Cl.Clc1ccc(CCCOCCCN2CCCCC2)cc1 [PITOLISANT HYDROCHLORIDE] | 0 |
| COC(=O)C(Cc1ccc(OCCn2c(=O)sc3cc(C(=O)c4ccccc4)ccc32)cc1)C(=O)OC | 0 |
| C[C@H](c1ccc(F)cc1)N(Cc1cccc(C(=O)O)c1)C(=O)c1cnc2ccccc2c1 | 1 |
| C[C@]1(C(=O)N(CCCC(=O)O)Cc2cccc(Cl)c2)CCN1C(=O)c1csc2ccccc12 | 1 |
| COc1cc(Nc2nccc(-c3cnn4nc(OC)ccc34)n2)cc(C(F)(F)F)c1 | 0 |
| CO[C@@H](C)c1c(Nc2ccc([C@H](N(C)C(=O)C3CCS(=O)(=O)CC3)C(F)(F)F)cc2)cnc2cc(Cl)nn12 | 0 |
| Cc1ccc2c(c1)c1c(n2CCc2ccc(C)nc2)CCN(C)C1 [LATREPIRDINE] | 0 |
| Cc1cc(C(C)(C)C)c(O)c(C)c1CC1=NCCN1.Cl [OXYMETAZOLINE HYDROCHLORIDE] | 1 |
| COc1ccc(S(=O)(=O)c2cc(OC)ccc2S(=O)(=O)c2ccc([C@H](C)NS(C)(=O)=O)cc2)cc1 | 1 |
| C=CC(=O)Nc1ccc2[nH]c(=O)n(C3CCN(Cc4ccc(-c5nc6cc[nH]c(=O)c6cc5-c5ccccc5)cc4)CC3)c2c1 | 0 |
| C[C@H](NC[C@H](O)CP(=O)(O)CC1CCCCC1)c1ccc(Cl)c(Cl)c1.Cl | 1 |
| COC(=O)/C=C/c1cccc(N(Cc2ccc(-c3ccc(N(C)C)cc3)cc2)C(=O)C2CCCCC2)c1 | 0 |
| CC(C)NC(=O)N1CC[C@H](NC2=Nc3cc(F)ccc3N(CC(F)F)c3ccc(Cl)cc32)C1 | 1 |
| Cc1ccccc1C(=O)Nc1ccc(C(=O)N2CCCC(O)c3cc(Cl)ccc32)c(C)c1 (centres undefined) | 0 |
| CN(C)C(=O)Cn1cc(-c2nc([C@@](C)(c3ccc(-c4cnc(N)nc4)cc3)C3CC3)no2)cn1 | 0 |
| Cc1cnc(-c2cc(Cl)ccc2F)cc1-n1c(=O)n(CC(N)=O)c2ccccc21 | 1 |
| Cc1cc(NC(=O)c2cccc(S(F)(F)(F)(F)F)c2)cc(-n2ccn3nc(-c4cccnc4)cc23)c1 | 0 |
| CCOC(=O)CCNc1cc(N2CCc3ccccc3CC2)nc(-c2cccnc2)n1 | 0 |
| O=C(O)C1CN(Cc2ccc(OCc3ccc(Cl)c(Cl)c3)cc2)C1 | 0 |
| CC(C)OC(=O)N1CCC(Oc2ncnc3c2cnn3-c2ccc(S(C)(=O)=O)cc2F)CC1 | 0 |
| O=C(O)CC/C=C\C[C@@H]1CO[C@H](c2ccccc2Cl)O[C@@H]1c1ccccc1O | 1 |
| C[C@]1(O)C[C@@H](c2nc(-c3ccc4ccc(-c5ccccc5)nc4c3)c3c(N)nccn32)C1 | 0 |
| C#Cc1cccc(Nc2ncnc3cc(OCCOC)c(OCCOC)cc23)c1 | 0 |
| CNC(=O)c1ccc(Nc2ncc(C(F)(F)F)c(NCc3nccnc3N(C)S(C)(=O)=O)n2)cc1 | 0 |
| CC(C)c1noc(N2CCC(COc3ccc(-c4ccc(S(C)(=O)=O)cc4)nc3)CC2)n1 | 0 |
| CC(C)(O)c1ccccc1CC[C@@H](SCC1(CC(=O)[O-])CC1)c1cccc(/C=C/c2ccc3ccc(Cl)cc3n2)c1.[Na+] [MONTELUKAST SODIUM] | 1 |
| COc1cc(-c2cn([C@H]3CCc4ccccc4N(CC(F)(F)F)C3=O)nn2)ccc1-n1ccc(C)n1 | 0 |
| CNCc1ccccc1-c1csc([C@@H](C)Nc2nc(C)nc3cc(OC)c(OC)cc23)c1 | 0 |
| Cc1csc(NC(=O)c2cc(F)cc(Oc3cncnc3)c2)n1 | 1 |

###

tested on: HEK-293T; experiment: Incucyte cell viability with HEK293T; format: toxicity, cell-based; conditions: human, 24 h, 10 µM, compound concentration 10 uM, replicate number 2, timepoint 24 hours; further: filed as whole numbers so only -1 and 0 and 1 occur
QUANTITY: Growth Rate

| COMPOUND | ENDPOINT RESULT |
| --- | --- |
| C[C@H](c1ccc(F)cc1)N(Cc1cccc(C(=O)O)c1)C(=O)c1cnc2ccccc2c1 | 0 |
| Cn1c(CNc2cccc(C(=O)NCc3ccccc3C(F)(F)F)c2)nnc1-c1ccncc1 | 1 |
| Cc1cc(C(C)(C)C)c(O)c(C)c1CC1=NCCN1.Cl [OXYMETAZOLINE HYDROCHLORIDE] | 0 |
| CC(C)(O)c1ccccc1CC[C@@H](SCC1(CC(=O)[O-])CC1)c1cccc(/C=C/c2ccc3ccc(Cl)cc3n2)c1.[Na+] [MONTELUKAST SODIUM] | 0 |
| Cc1csc(NC(=O)c2cc(F)cc(Oc3cncnc3)c2)n1 | 0 |
| O=C(O)Cn1c(C(=O)Nc2nc(-c3ccccc3Cl)cs2)cc2ccccc21 | 0 |
| O=C(NCC(=O)N1CCCC1)Nc1ccc2cnccc2c1 | 0 |
| CCOc1cn(-c2ccc(F)cc2C)nc1C(=O)Nc1ccc(Oc2ccnc3cc(OC)c(OC)cc23)c(F)c1 | 0 |
| CCNC(=O)c1cc2c(N3CCOC[C@@H]3C)ccnc2n1C | 1 |
